Each entry below carries its reported T/C.
Test system: BDF1 mice, s.c. Lewis lung carcinoma, T/C %
Test: NCI In Vivo Anticancer Drug Screen. Data for tumor model Lewis Lung Carcinoma (subcutaneous) in B6D2F1 (BDF1) mice
Settings: endpoint: median survival time; dose: 50.0 mg/kg/injection; schedule: Q01DX009 (ip); vehicle: saline with Tween-80; higher = longer survival
Inconclusive results are not listed.
measured-property: T/C

1. CC(=O)NNC(=O)c1ccccc1CO : 95 % of control
2. COc1cc(NC(=O)CN(CCCl)CCCl)cc(OC)c1OC : 88 % of control
3. c1cc[c]([Sn]([S][Sn]([c]2ccccc2)([c]2ccccc2)[c]2ccccc2)([c]2ccccc2)[c]2ccccc2)cc1 : 91 % of control
4. N#Cc1ncc(C(Cl)Cl)nc1Cl : 98 % of control
5. CCCCn1cnc2c(SC)ncnc21 : 94 % of control
6. COc1ccc(-c2ccc(OC)c(OC)c2OC)c(N)c1 : 107 % of control
7. CCN(CC)c1nc(N(CC)CC)nc(N(CC)CC)n1 : 105 % of control
8. CC1(C)CCC(NC(=O)N(CCF)N=O)CC1 : 88 % of control

###

Test system: BDF1 mice, s.c. Lewis lung carcinoma, T/C %
Test: NCI In Vivo Anticancer Drug Screen. Data for tumor model Lewis Lung Carcinoma (subcutaneous) in B6D2F1 (BDF1) mice
Conditions: endpoint: median survival time; dose: 40.0 mg/kg/injection; schedule: Q01DX009 (ip); vehicle: saline
Results filed as inconclusive are left out. The calls were made as follows: active = survival T/C of 150% or more; inactive = T/C below 125% in these data.
Labels: active, inactive

1) CN(C)CC(C(=O)c1ccc(Br)cc1)C(Br)c1ccccc1 (stereo not given) : inactive
2) CC(C)NCC(=O)c1ccc(O)c(O)c1 : inactive
3) CCN=C=NCCCN(C)C : inactive
4) C1CC[N-]CC1.C1CC[N-]CC1.C1CC[N-]CC1.C1CC[N-]CC1.[Cl][Co][Cl] : inactive
5) O=P1(N(CCCl)CCCl)NCCCO1 (stereo not given) : active

###

Entries annotated with measured T/C
System: BDF1 mice, s.c. Lewis lung carcinoma, T/C %
Assay: NCI In Vivo Anticancer Drug Screen. Data for tumor model Lewis Lung Carcinoma (subcutaneous) in B6D2F1 (BDF1) mice
Conditions: endpoint: mean tumor weight; dose: 100.0 mg/kg/injection; schedule: Q01DX011 (ip); vehicle: carboxymethylcellulose (CMC); higher = larger tumour
Inconclusive results are not listed.
measured-property: T/C

1) COc1cc(C[C@H]2c3cc(OC)c(OC)cc3CCN2C)c(Oc2cc3c(cc2OC)-c2c(OC)c(OC)cc4c2[C@H](C3)N(C)CC4)cc1OC : 26 % of control
2) O=C(O)/C=C\C(=O)Nc1nccs1 : 85 % of control
3) c1ccc2cc3c(cc2c1)Cn1c-3nc2ccccc21 : 23 % of control
4) O=C1C2CCCCC2C(=O)N1c1nccs1 (stereo not given) : 71 % of control
5) O=C1C2C3C=CC(C3)C2C(=O)N1c1nccs1 (stereo not given) : 100 % of control
6) CN[C@@H](C)[C@@H](O)c1ccccc1 : 85 % of control
7) CC1OC(Oc2c(-c3cc(O)c(O)c(O)c3)oc3cc(O)cc(O)c3c2=O)C(O)C(O)C1O (stereo not given) : 59 % of control
8) CNCc1ccccc1 : 65 % of control
9) Oc1ccc2ccccc2c1N=Nc1ccccc1 : 84 % of control
10) CC(C)=CCCC(C)CCO (stereo not given) : 72 % of control

###

System: BDF1 mice, s.c. Lewis lung carcinoma, T/C %
Assay: NCI In Vivo Anticancer Drug Screen. Data for tumor model Lewis Lung Carcinoma (subcutaneous) in B6D2F1 (BDF1) mice
Details: endpoint: median survival time; dose: 3.0 mg/kg/injection; schedule: Q01DX009 (ip); vehicle: Klucel (hydroxypropylcellulose) (HPC); higher = longer survival
Inconclusive results are not listed.
The following compounds are shown together with reported T/C values.
measured-property: T/C

1. Cc1cc(CCl)c(C)c(Br)c1C : 120 % of control
2. CCC[CH2][Sn]1([CH2]CCC)[N](S(=O)(=O)c2ccc(C)cc2)c2ccccc2[N]1S(=O)(=O)c1ccc(C)cc1 : 90 % of control
3. CC1OC(=O)C(C(C)C)NC(=O)C(C(C)C)OC(=O)C(C(C)C)NC(=O)C(C)OC(=O)C(C(C)C)NC(=O)C(C(C)C)OC(=O)C(C(C)C)NC(=O)C(C)OC(=O)C(C(C)C)NC(=O)C(C(C)C)OC(=O)C(C(C)C)NC1=O (centres undefined) : 101 % of control
4. Cc1cc(N)c2cc(NC(=O)CCCCCCCCC(=O)Nc3ccc4nc(C)cc(N)c4c3)ccc2n1 : 92 % of control
5. O=C1NC2(CCCCC2)C(=O)N1CCN(CCCl)CCCl : 104 % of control
6. CC(=O)Oc1ccc(OC(C)=O)c2c1C(=O)C=CC2=O : 113 % of control
7. CCCCCC[N+](CCCCCC)(CCCCCC)CCCCCC : 102 % of control
8. CC1CCC[N-]C1.CC1CCC[N-]C1.CC1CCC[N-]C1.CC1CCC[N-]C1.[Cl][Rh][Cl] (centres undefined) : 102 % of control
9. S=P(N1CC1)(N1CC1)N1CC1 : 113 % of control

###

This listing pairs compounds with measured T/C.
Tested on: BDF1 mice, s.c. Lewis lung carcinoma, T/C %
Experiment: NCI In Vivo Anticancer Drug Screen. Data for tumor model Lewis Lung Carcinoma (subcutaneous) in B6D2F1 (BDF1) mice
Conditions: endpoint: mean tumor weight; dose: 50.0 mg/kg/injection; schedule: Q01DX011 (ip); vehicle: saline; higher = larger tumour
Inconclusive results are not listed.
measured-property: T/C

1. CC(C)=CCC/C(C)=C\CC/C(C)=C/CO : 95 % of control
2. CC(=O)NCCSC(=O)C(=O)SCCNC(C)=O : 106 % of control
3. OC(CBr)C(O)C(O)C(O)CBr (stereo not drawn) : 82 % of control
4. Nc1nc2nc[nH]c2c(=O)[nH]1 : 82 % of control
5. NC(=O)n1cccn1 : 61 % of control
6. CN1C2CCC1CC(OC(=O)C(CO)c1ccccc1)C2 (stereo not drawn) : 72 % of control
7. c1ccc2ncccc2c1 : 49 % of control
8. CC(=O)Nc1ccc2nc3ccc(NC(C)=O)cc3[n+](-c3ccccc3)c2c1 : 59 % of control
9. CN(C)/N=N/c1nc[nH]c1C(N)=O : 80 % of control
10. CC(O)CC1CCCN1C (stereo not drawn) : 208 % of control
11. Oc1cc(O)c2c(c1)O[C@H](c1ccc(O)c(O)c1)[C@@H](O)C2 : 76 % of control
12. O=c1cc(-c2ccc(O)cc2)oc2c(O)c(O)c(O)c(O)c12 : 70 % of control
13. CS(=O)(=O)OCC(=O)NCCNC(=O)COS(C)(=O)=O : 90 % of control
14. C/C=C1\CNC2Cc3c([nH]c4ccccc34)C(=O)CC1C2C(=O)OC (stereo not drawn) : 97 % of control
15. CS(=O)(=O)OCCC(=O)N1CCN(C(=O)CCOS(C)(=O)=O)CC1 : 85 % of control
16. Cn1cnc2c1c(=O)[nH]c(=O)n2C : 74 % of control
17. Nc1ncnc2c1ncn2C1OC(CO)C(O)C1O (stereo not drawn) : 108 % of control
18. c1cc2n(n1)CCN2 : 84 % of control
19. CC1(C)[C@@H]2CC[C@]1(C)[C@H](O)C2 : 100 % of control
20. C[n+]1cccc(C(=O)O)c1 : 116 % of control
21. Nc1ncnc2nc[nH]c12 : 84 % of control
22. C=CCNC(=O)NCC=C : 28 % of control
23. NC(=S)N/N=C/c1ncccc1O : 31 % of control
24. O=C1C=CC(=Nc2ccc(O)c3ncccc23)c2cccnc21 : 26 % of control
25. NC(=O)NO : 90 % of control
26. CC(C)C1=CCC2C(=C1)CCC1C(C)(C(=O)O)CCCC21C (stereo not drawn) (tested in a mixture with another compound) : 72 % of control
27. CC(=O)CC(C)(C)N : 120 % of control
28. C=CCCCCCCCCC(=O)O : 92 % of control

###

Items are presented alongside their recorded T/C.
Test system: BDF1 mice, s.c. Lewis lung carcinoma, T/C %
Assay: NCI In Vivo Anticancer Drug Screen. Data for tumor model Lewis Lung Carcinoma (subcutaneous) in B6D2F1 (BDF1) mice
Conditions: endpoint: median survival time; dose: 1.56 mg/kg/injection; schedule: Q01DX009 (ip); vehicle: saline; higher = longer survival
Records with an inconclusive call do not appear.
measured-property: T/C

1) Cc1nc(N)nc(N)c1-c1ccc(Cl)c(Cl)c1 : 123 % of control
2) O=P(N1CCOCC1)(N1CC1)N1CC1 : 124 % of control
3) CC(C)=CC(=O)OCC[N+](C)(C)C : 96 % of control
4) CCCCn1ccnc1C : 112 % of control
5) CS(=O)(=O)OCCC(=O)N1CCN(C(=O)CCOS(C)(=O)=O)CC1 : 109 % of control
6) COc1cc(NS(C)(=O)=O)ccc1Nc1c2ccccc2nc2ccccc12 : 100 % of control
7) Nc1nc2c(ncn2C2OC(CO)C(O)C2N)c(=O)[nH]1 (configuration not stated) : 95 % of control
